The measured values listed here are drawn from PubChem BioAssay.

// composite z-score lookup, one value per entry
- System: Human papillomavirus type 1a E7 protein (residues 1-88)
- method: HPV1a E7 small-molecule binders, primary screen, biochemical, small-molecule microarray, residues 1-88, 635 nm (AID 1129)
- applied-conditions: small-molecule microarray binding, fluorescence 635 nm; higher = more signal

[
  {
    "smiles-input": "NC(=O)NCC#Cc1ccc2c(c1)[C@]1(C(=O)N2)[C@H](c2ccccc2OCCO)N2[C@H](c3ccccc3)[C@H](c3ccccc3)OC(=O)[C@H]2[C@@H]1C(=O)N1CCN(c2ncccn2)CC1",
    "assayed-system": "Human papillomavirus type 1a E7 protein (residues 1-88)",
    "composite z-score": 1.19
  },
  {
    "smiles-input": "C[C@H]1COC(=O)[C@H](Cc2ccccc2)NC(=O)[C@@H](C)COC(=O)[C@H](Cc2ccccc2)NC1=O",
    "assayed-system": "Human papillomavirus type 1a E7 protein (residues 1-88)",
    "composite z-score": 1.12
  },
  {
    "smiles-input": "COCCOC(=O)N1C(=O)[C@@]2(c3cc(C#CC4=CCCCC4)ccc31)[C@H](C(=O)NC[C@H](O)c1ccccc1)[C@H]1C(=O)O[C@H](c3ccccc3)[C@H](c3ccccc3)N1[C@@H]2c1ccccc1OCCO",
    "assayed-system": "Human papillomavirus type 1a E7 protein (residues 1-88)",
    "composite z-score": 1.17
  },
  {
    "smiles-input": "COCCCNC(=O)[C@@]1(Sc2ccc(C)cc2)CC(=O)N(Cc2cc(C(F)(F)F)cc(C(F)(F)F)c2)[C@@H]1c1ccc(CO)cc1I",
    "assayed-system": "Human papillomavirus type 1a E7 protein (residues 1-88)",
    "composite z-score": -1.1
  },
  {
    "smiles-input": "C=CCNC(=O)[C@H]1[C@@H]2C(=O)O[C@@H](c3ccccc3)[C@@H](c3ccccc3)N2[C@@H](c2ccc(O)cc2)[C@]12C(=O)Nc1ccc(C#CCNC(N)=O)cc12",
    "assayed-system": "Human papillomavirus type 1a E7 protein (residues 1-88)",
    "composite z-score": -0.572
  },
  {
    "smiles-input": "C=CC[C@]1(C(=O)OC)N=C(c2ccc(OCCCO)cc2)O[C@H]1c1ccccc1CN=[N+]=[N-]",
    "assayed-system": "Human papillomavirus type 1a E7 protein (residues 1-88)",
    "composite z-score": 0.731
  }
]

----------
- assayed-system: NADPH oxidase 2 (Homo sapiens) (UniProt P04839)
- Sequence (P04839 whole entry, looked up): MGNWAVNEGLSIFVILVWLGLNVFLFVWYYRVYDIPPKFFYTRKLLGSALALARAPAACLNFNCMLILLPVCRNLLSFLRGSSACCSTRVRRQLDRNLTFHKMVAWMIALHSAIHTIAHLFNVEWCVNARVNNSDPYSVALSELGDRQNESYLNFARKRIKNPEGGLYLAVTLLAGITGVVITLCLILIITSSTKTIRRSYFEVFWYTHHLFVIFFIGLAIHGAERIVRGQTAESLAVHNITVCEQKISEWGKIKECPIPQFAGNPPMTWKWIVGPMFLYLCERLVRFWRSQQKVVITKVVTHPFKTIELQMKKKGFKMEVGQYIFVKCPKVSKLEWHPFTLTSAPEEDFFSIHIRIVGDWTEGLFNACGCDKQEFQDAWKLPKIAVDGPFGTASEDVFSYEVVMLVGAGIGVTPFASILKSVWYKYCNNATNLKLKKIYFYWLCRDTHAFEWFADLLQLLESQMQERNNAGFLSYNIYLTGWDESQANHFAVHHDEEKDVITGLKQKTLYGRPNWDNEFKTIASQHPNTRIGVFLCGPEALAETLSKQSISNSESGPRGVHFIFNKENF
- method: NOX2-dependent H2O2 signal modulators, primary screen, NOX inhibitor project, cell-based, HEK293-NOX2, PMA-stimulated, Amplex Red fluorescence (AID 1159); also: test concentration not given here
- applied-conditions: 45 min, higher = more signal, called active from +8 up or from −8 down
Binning scheme for z-score: A = under -0.4, B = from -0.4 up to 0.8, C = 0.8 and over

[
  {
    "compound": "C=CCC(OC(C)=O)[C@@H]1[C@@H](N(Cc2cc3ccccc3o2)C(=O)Cc2ccc(F)cc2)c2cc(OCCCO)ccc2N1C(=O)c1ccc(-c2ccccc2)cc1 (some centres undefined)",
    "label-value": "B"
  },
  {
    "compound": "C=CCN1C(=O)[C@@]2(O[C@@H](CCn3cc([C@H](O)c4ccccc4)nn3)[C@H]([Si](C)(C)c3ccc(OC)cc3)[C@H]2C)c2cc(N3CCOC3=O)ccc21",
    "label-value": "B"
  },
  {
    "compound": "COc1cc2c(cc1OC)CN(C(=O)[C@H]1[C@@H]3C(=O)O[C@@H](c4ccccc4)[C@@H](c4ccccc4)N3[C@@H](c3ccc(O)cc3)[C@]13C(=O)Nc1ccc(C#CC4(O)CCCCCC4)cc13)CC2",
    "label-value": "C"
  },
  {
    "compound": "C[C@]1(C(=O)NCCN2CCOCC2)c2ccccc2C(=O)N(Cc2ccccc2)[C@H]1c1ccc(CO)cc1",
    "label-value": "B"
  },
  {
    "compound": "C=CC[C@@]1(C(=O)NCC(O)CO)N=C(c2ccc(OCCCO)cc2)O[C@@H]1c1ccccc1CN=[N+]=[N-] (some centres undefined)",
    "label-value": "A"
  },
  {
    "compound": "Cc1ccc(S[C@]2(C(=O)NCCCN(C)C)CC(=O)N(C3CCCCC3)[C@@H]2c2ccc(CO)cc2I)cc1",
    "label-value": "A"
  },
  {
    "compound": "CCCCO[C@H]1C[C@H]2C(Br)=C[C@@]1(CO)C(=O)[C@]21CO1",
    "label-value": "A"
  },
  {
    "compound": "COCCCNC(=O)[C@@]1(Sc2ccc(C)cc2)CC(=O)N(Cc2cc(C(F)(F)F)cc(C(F)(F)F)c2)[C@@H]1c1ccc(CO)cc1I",
    "label-value": "C"
  },
  {
    "compound": "COc1ccc(NN2C(C(O)c3cc(OC)c(OC)c(OC)c3)C=CC3C(=O)N(C4CCCCC4)C(=O)C32)cc1 (centres undefined)",
    "label-value": "A"
  },
  {
    "compound": "C[C@@H]1C=CCC(=O)OC[C@H]2O[C@@H](C=C[C@@H]2O)[C@H](C)C=CCC(=O)OC[C@H]2O[C@H]1C=C[C@@H]2O",
    "label-value": "A"
  },
  {
    "compound": "COc1cc([C@@H]2N[C@H](C(=O)O)Cc3c2[nH]c2ccccc32)cc(OC)c1OC",
    "label-value": "C"
  },
  {
    "compound": "C[C@@H]1NC(=O)[C@H](Cc2ccccc2)NC(=O)[C@@]23C(=O)N[C@@H](Cc4ccccc4)C2[C@H](C)[C@@]2(C)O[C@H]2C3/C=C/C/C=C\\CNC1=O (some centres undefined)",
    "label-value": "C"
  },
  {
    "compound": "CN1CCC(CCCO)=CC1C1CC1 (centres undefined)",
    "label-value": "B"
  },
  {
    "compound": "CO[C@H]1COC(=O)[C@H](C)NC(=O)CC=C[C@@H](C)[C@H](NS(=O)(=O)c2ccc(C)cc2)COC(=O)CC=C[C@@H]1C",
    "label-value": "B"
  },
  {
    "compound": "CC(C)[Si](OCC[C@H]1O[C@]2(C(=O)N(Cc3ccccc3)c3ccccc32)[C@@H](C)[C@@H]1[Si](C)(C)O)(C(C)C)C(C)C",
    "label-value": "C"
  },
  {
    "compound": "CCCC[C@@H]1C[C@H]1[C@@H](NC(=O)c1ccccc1)c1ccccc1C(F)(F)F",
    "label-value": "B"
  },
  {
    "compound": "NC(=O)NCC#Cc1ccc2c(c1)[C@]1(C(=O)N2)[C@H](C(N)=O)[C@H]2C(=O)O[C@H](c3ccccc3)[C@H](c3ccccc3)N2[C@@H]1c1ccccc1OCCO",
    "label-value": "C"
  },
  {
    "compound": "CCCC/C=C/[C@H]([C@@H](O)Cc1ccccc1)N(CC#Cc1ccccc1)Cc1ccccc1Br",
    "label-value": "A"
  },
  {
    "compound": "C[N+](C)(C)CCCCNC(=O)[C@H]1C[C@H]2C(=O)NCC(=O)N2[C@H]1c1cccc(OCCO)c1",
    "label-value": "A"
  },
  {
    "compound": "CCCC[C@@H]1C[C@H]1[C@@H](NC(=O)c1cccs1)c1ccc(Cl)cc1",
    "label-value": "A"
  },
  {
    "compound": "CCOC(=O)C[C@H]1[C@H](OC(=O)c2cc3ccccc3oc2=O)[C@@H](NC(=O)C2CCCCC2)c2cc(OCCCO)ccc2N1C(=O)c1ccc2ccccc2n1",
    "label-value": "C"
  },
  {
    "compound": "COC(=O)C1=CC(c2ccc(CO)cc2)=CC(C2CC2)N(Cc2sc3ccccc3c2Cl)C=C1C(=O)OC (centres undefined)",
    "label-value": "A"
  },
  {
    "compound": "O=C(CS)NCCCCCNC(=O)[C@H]1C[C@H]2C(=O)N3CCC[C@H]3C(=O)N2[C@H]1c1ccc(O)cc1",
    "label-value": "B"
  },
  {
    "compound": "COCCOC(=O)N1C(=O)[C@@]2(c3cc(C#CC4=CCCCC4)ccc31)[C@H](c1ccc(O)cc1)N1[C@H](c3ccccc3)[C@H](c3ccccc3)OC(=O)[C@H]1[C@@H]2C(=O)N1CCCCCCC1",
    "label-value": "C"
  },
  {
    "compound": "C=C(CCCC)/C(=C/C[C@@H](OC(=O)c1ccncc1)c1cccc(OCCO)c1)c1cc(C(=O)OC)ccc1OC",
    "label-value": "C"
  },
  {
    "compound": "CCCC[C@H]1OB(O)C[C@H]2C1=C(COC)C[C@H]1C(=O)N(Cc3ccccc3)C(=O)[C@H]12",
    "label-value": "B"
  },
  {
    "compound": "CO[C@@H]1COC(=O)[C@H](COCc2ccccc2)NC(=O)CC=C[C@@H](C)[C@H](OC)COC(=O)[C@H](COCc2ccccc2)NC(=O)CC=C[C@H]1C",
    "label-value": "C"
  },
  {
    "compound": "C=CCC(OC(C)=O)[C@@H]1[C@@H](N(Cc2cc3ccccc3o2)C(=O)c2ccc(C)cc2)c2cc(OCCCO)ccc2N1C(=O)c1ccc2ccccc2n1 (some centres undefined)",
    "label-value": "B"
  },
  {
    "compound": "O=C1c2ccccc2[C@@]2(Cc3ccccc3N(CC(F)(F)F)C2=O)[C@H](c2ccc(CO)cc2)N1C1CCCCC1",
    "label-value": "B"
  }
]
